Recorded values, source patent US9187464B2.

# target.or.test.system: human TRPV4 (Homo sapiens, UniProt Q9HBA0)
# Sequence (Q9HBA0 whole entry): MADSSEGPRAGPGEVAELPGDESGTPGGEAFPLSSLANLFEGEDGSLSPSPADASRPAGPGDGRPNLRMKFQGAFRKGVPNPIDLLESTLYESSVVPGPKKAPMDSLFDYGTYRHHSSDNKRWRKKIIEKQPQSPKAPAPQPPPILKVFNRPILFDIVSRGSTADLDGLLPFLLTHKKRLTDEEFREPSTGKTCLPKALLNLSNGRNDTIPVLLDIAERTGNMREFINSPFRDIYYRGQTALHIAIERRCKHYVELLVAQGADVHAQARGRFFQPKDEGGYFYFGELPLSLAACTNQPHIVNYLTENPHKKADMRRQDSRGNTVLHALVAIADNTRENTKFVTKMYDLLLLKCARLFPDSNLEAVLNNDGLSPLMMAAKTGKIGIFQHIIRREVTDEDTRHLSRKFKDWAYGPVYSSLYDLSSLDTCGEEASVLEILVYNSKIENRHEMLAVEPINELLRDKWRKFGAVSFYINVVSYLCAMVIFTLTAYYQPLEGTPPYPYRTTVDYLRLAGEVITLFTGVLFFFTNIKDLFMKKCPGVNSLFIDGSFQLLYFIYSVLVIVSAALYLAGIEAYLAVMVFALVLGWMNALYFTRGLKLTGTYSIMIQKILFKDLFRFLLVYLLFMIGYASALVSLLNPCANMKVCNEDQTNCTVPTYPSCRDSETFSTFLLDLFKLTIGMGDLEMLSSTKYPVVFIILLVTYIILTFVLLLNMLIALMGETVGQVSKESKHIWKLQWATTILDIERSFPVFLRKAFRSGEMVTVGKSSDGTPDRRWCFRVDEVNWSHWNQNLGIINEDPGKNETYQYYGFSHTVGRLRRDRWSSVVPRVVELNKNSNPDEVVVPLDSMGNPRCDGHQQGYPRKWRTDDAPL
# protocol.text: Ligand-gated assay (Fluo4 calcium, FLIPR; inhibition of agonist-induced activation)
# cond: HEK-293-MSR-II cells transduced with BacMam human TRPV4; agonist at EC80
pIC50: −log10 of the molar value.
Reported pIC50 values for the following molecules.

smiles.notation | pIC50
N#Cc1ccc2ncn(C[C@H]3CCC[C@]4(C3)CN(Cc3cn(-c5cncc(C(F)(F)F)c5)nn3)C(=O)O4)c2c1 | 8.00 to 10.00

Then there is this molecule:
Enquiry: Which pIC50 is reported for this molecule? `CC(C)(C)c1noc(C(C)(C)CN2C[C@@]3(CCC[C@H](Cn4cnc5ccc(C#N)cc54)C3)OC2=O)n1`
Return: 8.00 to 10.00

###

# target.or.test.system: human TRPV4 (Homo sapiens, UniProt Q9HBA0)
# protocol.text: Ligand-gated assay (Fluo4 calcium, FLIPR; inhibition of agonist-induced activation)
# cond: HEK-293-MSR-II cells transduced with BacMam human TRPV4; agonist at EC80
# Description: TRP channel activation/opening results in an influx of divalent and monovalent cations including calcium. The resulting changes in intracellular calcium were monitored using a calcium selective fluorescent dye Fluo4 (MDS Analytical Technologies). […] Cells were subsequently activated by addition of an agonist and inhibition of the agonist-induced activation was recorded. […] Calcium release was measured using the FLIPRtetra (MDS Analytical Technologies) or FLIPR384 (MDS Analytical Technologies). […]
pIC50: −log10 of the molar value.
# pIC50 values compiled below

Example compounds with recorded pIC50:
smiles.notation | assay.metric | test.value
COc1cc(OC)c(N2C[C@@]3(CCC[C@H](Cn4cnc5ccc(C#N)cc54)C3)OC2=O)cn1 | pIC50 | 7.30 to 8.00
COc1cc(C)c(N2C[C@@]3(CCC[C@](C)(Cn4cnc5ccc(C#N)cc54)C3)OC2=O)cn1 | pIC50 | 8.00 to 10.00

Shift focus to the following entry.
Enquiry: Endpoint output: pIC50 of `CC(C)(CO)c1cnc(N2C[C@@]3(CCC[C@](C)(Cn4cnc5ccc(C#N)cc54)C3)OC2=O)cn1` . Value?
Return: 7.30 to 8.00

###

# target.or.test.system: human TRPV4 (Homo sapiens)
# protocol.text: Ligand-gated assay (Fluo4 calcium, FLIPR; inhibition of agonist-induced activation)
# cond: HEK-293-MSR-II cells transduced with BacMam human TRPV4; agonist at EC80
assay.metric: IC50

Please review the entries below; each comes with its answer.
compound | IC50
CC(C)(CN1C[C@@]2(CCC[C@H](Cn3cnc4ccc(C#N)cc43)C2)OC1=O)c1nc(-c2cncnc2)no1 [Example 78] | 0.1 to 10 nM
C[C@]1(Cn2cnc3ccc(C#N)cc32)CCC[C@@]2(CN(c3cnc(C(F)(F)F)cn3)C(=O)O2)C1 [Example 115] | 0.1 to 10 nM
Cc1ccc(-n2cc(CN3C[C@@]4(CCC[C@H](Cn5cnc6ccc(C#N)cc65)C4)OC3=O)nn2)cc1 [Example 91] | 50 to 500 nM
N#Cc1ccc2ncn(C[C@H]3CCC[C@]4(C3)CN(CC3CCN(c5ccccn5)C3)C(=O)O4)c2c1 (stereo partly shown) [Example 86] | 50 to 500 nM
C[C@]1(Cn2cnc3ccc(C#N)cc32)CCC[C@@]2(CN(c3cc(C(F)(F)F)no3)C(=O)O2)C1 [Example 37] | 10 to 50 nM

Enquiry: For CCOc1ccnc(CN2C[C@@]3(CCC[C@](C)(Cn4cnc5ccc(C#N)cc54)C3)OC2=O)c1 [Example 156] , what is its reported IC50?
Return: 0.1 to 10 nM

Enquiry: GET /values?readout=IC50&item= Cc1cc(Cl)ncc1N1C[C@@]2(CCC[C@H](Cn3cnc4ccc(C#N)cc43)C2)OC1=O [Example 120]
Return: 0.1 to 10 nM

###

# target.or.test.system: human TRPV4 (Homo sapiens)
# protocol.text: Ligand-gated assay (Fluo4 calcium, FLIPR; inhibition of agonist-induced activation)
# cond: HEK-293-MSR-II cells transduced with BacMam human TRPV4; agonist at EC80
pIC50: −log10 of the molar value.
A collection of molecules and their measured pIC50

smiles.notation | assay.metric | test.value
N#Cc1ccc(-n2cc(CN3C[C@@]4(CCC[C@H](Cn5cnc6ccc(C#N)cc65)C4)OC3=O)nn2)cc1 | pIC50 | 6.30 to 7.30

Enquiry: Please look up its pIC50: `CCc1cccnc1N1C[C@@]2(CCC[C@](C)(Cn3cnc4ccc(C#N)cc43)C2)OC1=O`
Return: 7.30 to 8.00

Enquiry: Which value of pIC50 has been reported for `N#Cc1cc(Cl)c2ncn(C[C@H]3CCC[C@]4(C3)CN(CC3(c5nc(-c6ccccc6)no5)CCOCC3)C(=O)O4)c2c1` in the records?
Return: 8.00 to 10.00

###

# target.or.test.system: human TRPV4 (Homo sapiens, UniProt Q9HBA0)
# protocol.text: Ligand-gated assay (Fluo4 calcium, FLIPR; inhibition of agonist-induced activation)
# cond: HEK-293-MSR-II cells transduced with BacMam human TRPV4; agonist at EC80
pIC50: −log10 of the molar value.
assay.metric: pIC50

molecule | pIC50
Cc1nc(C(F)(F)F)cnc1N1C[C@@]2(CCC[C@H](Cn3cnc4ccc(C#N)cc43)C2)OC1=O [Example 131] | 6.30 to 7.30
CCc1cc(N2C[C@@]3(CCC[C@](C)(Cn4cnc5ccc(C#N)cc54)C3)OC2=O)on1 [Example 33] | 7.30 to 8.00

Enquiry: Recorded pIC50 of CC(C)(C)c1noc(N2C[C@@]3(CCC[C@H](Cn4cnc5ccc(C#N)cc54)C3)OC2=O)c1F [Example 47] , please.
Return: 8.00 to 10.00
